Source of measurements: patent US6737383B1

Tested on: giant foxtail
protocol-notes: Test B pre/postemergence giant foxtail
Assay type: in vivo, Setaria faberii
details: Preemergence, Rate 62 g/ha; scale of 0 to 10 where 0 is no effect and 10 is complete control
Procedure: […] At the same time, these crop and weed species were also treated with postemergence applications of test chemicals formulated in the same manner. […] Treated plants and controls were maintained in a greenhouse for twelve to sixteen days, after which all species were compared to controls and visually evaluated. […]
measure-name: Giant foxtail plant response rating
Please give the numeric answer without any surrounding text.

# annotated cases, reported Giant foxtail plant response rating shown
{"molecule": "Cc1ccccc1-n1c(=O)on(C(=O)N(c2ccc(F)cc2)C(C)C2CC2)c1=O (stereo not drawn)", "result": 5}
{"molecule": "CC(C)N(C(=O)n1oc(=O)n(CCC(F)=C(F)F)c1=O)c1ccc(F)cc1", "result": 9}
{"molecule": "CC(C)N(C(=O)n1oc(=O)n(CCCC#N)c1=O)c1ccc(F)cc1", "result": 9}
{"molecule": "COc1nc(OC)nc(N(C(=O)n2oc(=O)n(C(C)C)c2=O)C(C)C)n1", "result": 0}

stdin: Give the value of Giant foxtail plant response rating reported for the following: CC(C)N(C(=O)n1oc(=O)n(C2CC2)c1=O)c1ccc(Cl)cc1
stdout: 10

stdin: Give the value of Giant foxtail plant response rating reported for the following: CC(C)N(C(=O)n1oc(=O)n(C2CC3CCC2C3)c1=O)c1ccc(F)cc1F (stereo not drawn)
stdout: 0

stdin: Give the value of Giant foxtail plant response rating reported for the following: CC(C)=CCn1c(=O)on(C(=O)N(c2ccc(F)cc2)C(C)C)c1=O
stdout: 5

stdin: Give the value of Giant foxtail plant response rating reported for the following: CC(C)N(C(=O)n1oc(=O)n(C(C)C(=O)c2ccccc2)c1=O)c1ccc(F)cc1 (stereo not drawn)
stdout: 3

stdin: Give the value of Giant foxtail plant response rating reported for the following: CC(C)N(C(=O)n1oc(=O)n(-c2ccc3ccccc3c2)c1=O)c1ccc(F)cc1F
stdout: 2

----------
Catalogue of Plant response rating, Purple nutsedge values
System: purple nutsedge
protocol-notes: Test D purple nutsedge
Assay type: in vivo, Cyperus rotundus
details: Rate 250 g/ha; Preemergence; 0 to 100 scale
Please give the numeric answer without any surrounding text.

# annotated cases, reported Plant response rating, Purple nutsedge shown
{"compound": "C=CCn1c(=O)on(C(=O)N(c2ccccc2)C(C)C)c1=O [Compound 93]", "Plant response rating, Purple nutsedge": 30}
{"compound": "CCCn1c(=O)on(C(=O)N(c2ccc(Cl)cc2)C(C)C)c1=O [Compound 119]", "Plant response rating, Purple nutsedge": 0}
{"compound": "Cc1cccc(C)c1-n1c(=O)on(C(=O)N(c2ccccc2)C(C)C)c1=O [Compound 46]", "Plant response rating, Purple nutsedge": 0}
{"compound": "CC(C)N(C(=O)n1oc(=O)n(C2CCCCC2)c1=O)c1ccc(F)cc1 [Compound 110]", "Plant response rating, Purple nutsedge": 0}

Next up:
stdin: Return reported Plant response rating, Purple nutsedge for target or system purple nutsedge, item CC(C)N(C(=O)n1oc(=O)n(Cc2cccs2)c1=O)c1ccccc1 [Compound 103] .
stdout: 0

----------
Catalogue of Plant response rating, Redroot pigweed values
Test system: pigweed
protocol-notes: Test B pre/postemergence pigweed
Type: in vivo, Amaranthus retroflexus
details: Postemergence, Rate 125 g/ha; scale 0 to 10, 0 is no effect, 10 is complete control
Please give the numeric answer without any surrounding text.

# annotated cases, reported Plant response rating, Redroot pigweed shown
{"compound": "CC(C)N(C(=O)n1oc(=O)n(C2CC3CCC2C3)c1=O)c1ccc(F)cc1F (stereo not shown)", "Plant response rating, Redroot pigweed": 4}
{"compound": "Cc1c(-n2c(=O)on(C(=O)N(c3ccc(F)cc3F)C(C)C)c2=O)ccc2ccccc12", "Plant response rating, Redroot pigweed": 0}
{"compound": "Cc1nsc(Cl)c1Cn1c(=O)on(C(=O)N(c2ccc(F)cc2)C(C)C)c1=O", "Plant response rating, Redroot pigweed": 3}

Next up:
stdin: Return reported Plant response rating, Redroot pigweed for target or system pigweed, item CC(C)N(C(=O)n1oc(=O)n(C(C)CCl)c1=O)c1ccc(F)cc1 (stereo not shown) .
stdout: 0

----------
System: wheat
protocol-notes: Test B pre/postemergence wheat
Assay type: in vivo, Triticum aestivum
details: Preemergence, Rate 500 g/ha; scale 0 (no effect) to 10 (complete control)
measure-name: Wheat plant response rating

{"compound": "CC(C)N(C(=O)n1oc(=O)n(Cc2cccs2)c1=O)c1ccc(F)cc1 [Compound 80]", "experimental-target": "wheat", "measure-name": "Wheat plant response rating", "result": 0}
{"compound": "CC(C)N(C(=O)n1oc(=O)n(C2CCCCC2C(F)(F)F)c1=O)c1ccc(F)cc1 (stereo not drawn) [Compound 99]", "experimental-target": "wheat", "measure-name": "Wheat plant response rating", "result": 2}
{"compound": "CC(C)N(C(=O)n1oc(=O)n(-c2cc(Cl)cc(Cl)c2)c1=O)C1=CCOCC1 [Compound 9]", "experimental-target": "wheat", "measure-name": "Wheat plant response rating", "result": 0}
{"compound": "COc1ccc(-n2c(=O)on(C(=O)N(C3=CCOCC3)C(C)C)c2=O)cc1 [Compound 6]", "experimental-target": "wheat", "measure-name": "Wheat plant response rating", "result": 0}
{"compound": "Cc1ccccc1-n1c(=O)on(C(=O)N(c2ccc(F)cc2)C(C)C)c1=O [Compound 4]", "experimental-target": "wheat", "measure-name": "Wheat plant response rating", "result": 0}

Next up:
stdin: Return reported Wheat plant response rating for target or system wheat, item Cc1ccccc1-n1c(=O)on(C(=O)N(c2ccc(C#N)cc2)C(C)C)c1=O [Compound 51] .
stdout: 0

----------
Test system: crabgrass
protocol-notes: Test B pre/postemergence crabgrass
Assay type: in vivo, Digitaria sanguinalis
details: Preemergence, Rate 62 g/ha; scale 0 to 10 (0 no effect, 10 complete control)
measure-name: Plant response rating, Crabgrass
Please give the numeric answer without any surrounding text.

{"compound": "CC(C)N(C(=O)n1oc(=O)n(C2CCCCCC2)c1=O)C1=CCCCC1 [Compound 428]", "Plant response rating, Crabgrass": 2}
{"compound": "CC(C)N(C(=O)n1oc(=O)n(C2CCC2)c1=O)c1ccc(Cl)cc1 [Compound 349]", "Plant response rating, Crabgrass": 3}
{"compound": "CC(C)N(C(=O)n1oc(=O)n(C2CCOCC2)c1=O)c1ccccc1 [Compound 416]", "Plant response rating, Crabgrass": 7}
{"compound": "CC(C)C(C)n1c(=O)on(C(=O)N(c2ccc(F)cc2F)C(C)C)c1=O (stereo not drawn) [Compound 356]", "Plant response rating, Crabgrass": 7}
{"compound": "CC(C)N(C(=O)n1oc(=O)n(C(C)CCl)c1=O)c1ccc(F)cc1F (stereo not drawn) [Compound 408]", "Plant response rating, Crabgrass": 9}

Next up:
stdin: Give the value of Plant response rating, Crabgrass reported for the following: CC(C)Cn1c(=O)on(C(=O)N(c2ccc(Cl)cc2)C(C)C)c1=O [Compound 417]
stdout: 6

----------
Catalogue of Sugarbeets plant response rating values
Test system: sugar beet
protocol-notes: Test B pre/postemergence sugar beet
Type: in vivo, Beta vulgaris
details: Rate 62 g/ha, Postemergence; scale of 0 to 10 where 0 is no effect and 10 is complete control
Please give the numeric answer without any surrounding text.

# annotated cases, reported Sugarbeets plant response rating shown
{"compound": "C=CCn1c(=O)on(C(=O)N(c2ccc(F)cc2)C2CCC2)c1=O", "Sugarbeets plant response rating": 0}
{"compound": "CCCCn1c(=O)on(C(=O)N(c2ccc(F)cc2)C(C)C)c1=O", "Sugarbeets plant response rating": 0}
{"compound": "CC(C)N(C(=O)n1oc(=O)n(Cc2cccs2)c1=O)c1ccccc1", "Sugarbeets plant response rating": 1}
{"compound": "Cc1ccccc1-n1c(=O)on(C(=O)N(c2ccc(Cl)cc2F)C(C)C)c1=O", "Sugarbeets plant response rating": 0}
{"compound": "Cc1nsc(Cl)c1Cn1c(=O)on(C(=O)N(c2ccc(F)cc2)C(C)C)c1=O", "Sugarbeets plant response rating": 0}

stdin: Give the value of Sugarbeets plant response rating reported for the following: CC(C)N(C(=O)n1oc(=O)n(C(C)CCl)c1=O)c1ccc(F)cc1 (stereo not drawn)
stdout: 0

stdin: Give the value of Sugarbeets plant response rating reported for the following: CC(C)N(C(=O)n1oc(=O)n(C2CCCCC2)c1=O)c1ccc(Cl)cc1
stdout: 2

stdin: Give the value of Sugarbeets plant response rating reported for the following: CC(C)N(C(=O)n1oc(=O)n(CC2(C)COC2)c1=O)c1ccc(F)cc1
stdout: 0

stdin: Give the value of Sugarbeets plant response rating reported for the following: Cc1ccccc1-n1c(=O)on(C(=O)N(c2ccc(F)cc2)C(C)C2CC2)c1=O (stereo not drawn)
stdout: 0

stdin: Give the value of Sugarbeets plant response rating reported for the following: CC(C)C(C)n1c(=O)on(C(=O)N(c2ccc(F)cc2F)C(C)C)c1=O (stereo not drawn)
stdout: 0

stdin: Give the value of Sugarbeets plant response rating reported for the following: CC(C)N(C(=O)n1oc(=O)n(C2CC2)c1=O)c1ccc(Cl)cc1
stdout: 0

stdin: Give the value of Sugarbeets plant response rating reported for the following: Cc1cnn(C)c1-n1c(=O)on(C(=O)N(c2ccc(F)cc2)C(C)C)c1=O
stdout: 0
